test system: Nocardia Asteroides ATCC 99700; assay: In vitro antibacterial activity, agar dilution MIC; type: cell-based; parameters: unit not given here; conditions: code VV, BHI agar, 35-37° C., 20 to 24 hours
result_type: Antibacterial Activity (MIC)
Give only the figure.

Study these solved cases before continuing.
compound	measured_result
CCC1OC(=O)C(C)(CC=Cc2ccccc2)C(=O)C(C)C(OC2OC(C)CC(N(C)C)C2O)C(C)(OC)CC(C)C(=O)C(C)C2NC(=O)OC12C (stereo not shown) [Example 1]	25
C#CCOC1(C)CC(C)C(=O)C(C)C2NC(=O)OC2(C)C(CC)OC(=O)C(C)(CC=Cc2ccccc2)C(=O)C(C)C1OC1OC(C)CC(N(C)C)C1O (stereo not shown) [Example 9]	1.56

Quick one: Antibacterial Activity (MIC) of CCC1OC(=O)C(C)(O)C(=O)C(C)C(OC2OC(C)CC(N(C)C)C2O)C(C)(OCC=Cc2cnc3ccccc3c2)CC(C)C(=O)C(C)C2NC(=O)OC12C (stereo not shown) [Example 8] ? 0.39

Look up Antibacterial Activity (MIC) for this compound: C=CCC1(C)C(=O)OC(CC)C2(C)OC(=O)NC2C(C)C(=O)C(C)CC(C)(OCC=Cc2cnc3ccccc3c2)C(OC2OC(C)CC(N(C)C)C2O)C(C)C1=O (stereo not shown) [Example 4] 0.1

May I ask what Antibacterial Activity (MIC) has been recorded for CCC1OC(=O)C(C)(O)C(=O)C(C)C(OC2OC(C)CC(N(C)C)C2O)C(C)(OC)CC(C)C(=O)C(C)C2N(CCCCc3ccccc3)C(=O)OC12C (stereo not shown) [Example 10] ? 1.56

Looking for the measured Antibacterial Activity (MIC) of CC[C@H]1OC(=O)[C@H](C)[C@@H](O[C@H]2C[C@@](C)(OC)[C@@H](O)[C@H](C)O2)[C@H](C)[C@@H](O[C@@H]2O[C@H](C)C[C@H](N(C)C)[C@H]2O)[C@](C)(O)C[C@@H](C)C(=O)[C@H](C)[C@@H](O)[C@]1(C)O [Ery. A, Erythromycin A, reference compound] , can you help? 0.1

###

test system: Streptococcus bovis A-5169; assay: In vitro antibacterial activity, agar dilution MIC; assay type: cell-based; design: unit not given here; conditions: code JJ, BHI agar, 35-37° C., 20 to 24 hours
result_type: Antibacterial Activity (MIC)
Returns: the value as a bare number; no unit string appended.

compound	measured_result
CCC1OC(=O)C(C)(O)C(=O)C(C)C(OC2OC(C)CC(N(C)C)C2O)C(C)(OCC=Cc2cnc3ccccc3c2)CC(C)C(=O)C(C)C2NC(=O)OC12C (stereo not shown) [Example 8]	0.02

Which value of Antibacterial Activity (MIC) has been reported for C#CCOC1(C)CC(C)C(=O)C(C)C2NC(=O)OC2(C)C(CC)OC(=O)C(C)(CC=Cc2ccccc2)C(=O)C(C)C1OC1OC(C)CC(N(C)C)C1O (stereo not shown) [Example 9] in the records? 0.78

// query Antibacterial Activity (MIC) value for entry C=CCC1(C)C(=O)OC(CC)C2(C)OC(=O)NC2C(C)C(=O)C(C)CC(C)(OCC=Cc2cnc3ccccc3c2)C(OC2OC(C)CC(N(C)C)C2O)C(C)C1=O (stereo not shown) [Example 4] 0.05

What value of measured Antibacterial Activity (MIC) is listed for CCC1OC(=O)C(C)(CC=Cc2ccccc2)C(=O)C(C)C(OC2OC(C)CC(N(C)C)C2O)C(C)(OC)CC(C)C(=O)C(C)C2NC(=O)OC12C (stereo not shown) [Example 1] ? 12.5

Give its Antibacterial Activity (MIC) value. Item: CCC1OC(=O)C(C)(O)C(=O)C(C)C(OC2OC(C)CC(N(C)C)C2O)C(C)(OC)CC(C)C(=O)C(C)C2N(CCCCc3ccccc3)C(=O)OC12C (stereo not shown) [Example 10] 0.2

For the compound CCC1OC(=O)C(C)(O)C(=O)C(C)C(OC2OC(C)CC(N(C)C)C2O)C(C)(OCC(O)CO)CC(C)C(=O)C(C)C2NC(=O)OC12C (stereo not shown) [Example 3] , what Antibacterial Activity (MIC) is on record? 50

Name the recorded Antibacterial Activity (MIC) for CC[C@H]1OC(=O)[C@H](C)[C@@H](O[C@H]2C[C@@](C)(OC)[C@@H](O)[C@H](C)O2)[C@H](C)[C@@H](O[C@@H]2O[C@H](C)C[C@H](N(C)C)[C@H]2O)[C@](C)(O)C[C@@H](C)C(=O)[C@H](C)[C@@H](O)[C@]1(C)O [Ery. A, Erythromycin A, reference compound] . 0.02
